- TARGET_SYSTEM: Alpha-glucosidase MAL32 (Saccharomyces cerevisiae (strain ATCC 204508 / S288c), UniProt P38158)
- Sequence (P38158 whole entry): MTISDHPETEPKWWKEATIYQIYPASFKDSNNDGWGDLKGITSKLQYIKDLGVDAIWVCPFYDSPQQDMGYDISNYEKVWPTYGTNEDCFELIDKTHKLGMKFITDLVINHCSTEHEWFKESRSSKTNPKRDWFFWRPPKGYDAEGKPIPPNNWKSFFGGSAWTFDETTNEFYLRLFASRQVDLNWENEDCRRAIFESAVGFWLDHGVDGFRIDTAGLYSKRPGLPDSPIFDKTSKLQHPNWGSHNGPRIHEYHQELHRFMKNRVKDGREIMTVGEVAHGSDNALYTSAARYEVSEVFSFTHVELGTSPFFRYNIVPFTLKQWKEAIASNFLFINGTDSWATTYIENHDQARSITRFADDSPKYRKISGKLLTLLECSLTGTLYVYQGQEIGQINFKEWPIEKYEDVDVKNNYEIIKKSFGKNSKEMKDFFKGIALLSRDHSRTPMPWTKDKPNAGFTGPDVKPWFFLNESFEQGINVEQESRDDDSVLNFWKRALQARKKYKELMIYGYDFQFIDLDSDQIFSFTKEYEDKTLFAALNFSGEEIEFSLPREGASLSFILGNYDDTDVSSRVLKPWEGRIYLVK
- METHOD: In Vitro α-Glucosidase Inhibitory Assay
- STATED_CONDITIONS: pH 6.8; 37 °C
EXPERIMENTAL_ENDPOINT: pIC50
# pIC50 is unitless: minus log10 of the molar concentration; print number only

Input: Requested field: pIC50. Item: `CC(C)n1cc(C2(c3cn(C(C)C)c4ccccc34)C(=O)Nc3ccccc32)c2ccccc21`
Output: 4.99

Input: Requested field: pIC50. Item: `Cn1cc(C2(c3cn(C)c4ccccc34)C(=O)Nc3ccccc32)c2ccccc21`
Output: 4.86

Input: Requested field: pIC50. Item: `CC(C)Cn1cc(C2(c3cn(CC(C)C)c4ccccc34)C(=O)Nc3ccccc32)c2ccccc21`
Output: 4.83

Input: Requested field: pIC50. Item: `O=C1Nc2ccccc2C1(c1c[nH]c2ccccc12)c1c[nH]c2ccccc12`
Output: 3.84

----------
- TARGET_SYSTEM: Alpha-glucosidase MAL32 (Saccharomyces cerevisiae (strain ATCC 204508 / S288c))
- METHOD: In Vitro α-Glucosidase Inhibitory Assay
- STATED_CONDITIONS: pH 6.8; 37 °C
Lab note: cut-off is 10 µM. Strictly less in IC50 is Satisfied. Exactly 10 µM or more is Not satisfied.

Input: Hello, is IC50 of the following molecule strictly smaller than 10 µM? `O=C1Nc2ccccc2C1(c1cn(Cc2ccc(Br)cc2)c2ccccc12)c1cn(Cc2ccc(Br)cc2)c2ccccc12`
Output: Satisfied

Input: Hello, is IC50 of the following molecule strictly smaller than 10 µM? `CCCn1cc(C2(c3cn(CCC)c4ccccc34)C(=O)Nc3ccccc32)c2ccccc21`
Output: Not satisfied

Input: Hello, is IC50 of the following molecule strictly smaller than 10 µM? `CCCCn1cc(C2(c3cn(CCCC)c4ccccc34)C(=O)Nc3ccccc32)c2ccccc21`
Output: Not satisfied

Input: Hello, is IC50 of the following molecule strictly smaller than 10 µM? `Cc1ccc2c(c1)C(c1c[nH]c3ccccc13)(c1c[nH]c3ccccc13)C(=O)N2`
Output: Not satisfied

Input: Hello, is IC50 of the following molecule strictly smaller than 10 µM? `O=C1Nc2ccc(Br)cc2C1(c1c[nH]c2ccccc12)c1c[nH]c2ccccc12`
Output: Not satisfied

Input: Hello, is IC50 of the following molecule strictly smaller than 10 µM? `O=C1Nc2ccccc2C1(c1cn(Cc2ccccc2Cl)c2ccccc12)c1cn(Cc2ccccc2Cl)c2ccccc12`
Output: Satisfied

Input: Hello, is IC50 of the following molecule strictly smaller than 10 µM? `O=C1Nc2ccccc2C1(c1cn(Cc2ccccc2F)c2ccccc12)c1cn(Cc2ccccc2F)c2ccccc12`
Output: Satisfied

Input: Hello, is IC50 of the following molecule strictly smaller than 10 µM? `O=C1Nc2ccccc2C1(c1cn(Cc2cccc(F)c2)c2ccccc12)c1cn(Cc2cccc(F)c2)c2ccccc12`
Output: Satisfied
